Catalogue of growth inhibition values
# Tested on: SUDIPGVI (diffuse intrinsic pontine glioma line)
# assay.notes: growth inhibition (% activity, log2 RLU normalised to DMSO / staurosporine); higher = more growth inhibition
# experimental.setup: 33 µM
Record the value in %, omitting the unit from your answer.

# compound, scale.unit, growth inhibition
measured = [
    ("Nc1nc(=O)c2c([nH]1)NC[C@H](CNc1ccc(C(=O)N[C@@H](CCC(=O)O)C(=O)O)cc1)N2C=O", "%", -2.53),
    ("CN(C)CCc1c[nH]c2ccc(Cn3cncn3)cc12", "%", 1.51),
    ("CN(C)CCCN1c2ccccc2CCc2ccc(Cl)cc21", "%", 3.07),
    ("CCCC(=O)O[C@]1(C(=O)COC(C)=O)CC[C@H]2[C@@H]3C[C@H](F)C4=CC(=O)C=C[C@]4(C)[C@@]3(F)[C@@H](O)C[C@@]21C", "%", -0.161),
    ("Clc1ccccc1CN1CCc2sccc2C1", "%", 3.23),
    ("CNC(=O)c1cc(Oc2ccc(NC(=O)Nc3ccc(Cl)c(C(F)(F)F)c3)c(F)c2)ccn1", "%", 4.32),
]

Prompt: // query growth inhibition value for entry O=C(O)c1cn(-c2ccc(F)cc2)c2cc(N3CCNCC3)c(F)cc2c1=O
Response: 3.85

Prompt: Entry to check: Clc1ccc(C(Cn2ccnc2)OCc2c(Cl)cccc2Cl)c(Cl)c1 (stereo not given)
Response: 2.55

Prompt: Now consider N[C@@H]1CONC1=O .
Response: 1.19

Prompt: Then this compound: CNCCC(Oc1ccc(C(F)(F)F)cc1)c1ccccc1 (stereo not given)
Response: 0.57
